- Test system: HL-60
- measurement_notes: NCI tumour cell line growth inhibition, 48 h
Calls of active or inactive are those of the source. No stated cut-off is given here; in the data, active = GI50 up to about 1.1 µM and inactive = higher.
Respond with a class label; see 1 (active), -1 (inactive)

Please review the entries below; each comes with its answer.
{"columns": ["compound", "assigned_class"],
 "data": [
  ["CC(C)(C)C(=O)CP(=O)(O)O", -1],
  ["Cc1ccccc1/N=N/c1ccc(N/N=C2/CCCNC2=O)c(C)c1", -1],
  ["CCOC(=O)c1nc2c3c(ncn2n1)Oc1c(c(-c2ccccc2)nn1-c1ccccc1)C3c1ccc(Cl)cc1 (stereo not given)", -1]
]}

Which outcome was assigned to Cc1nn(C(=O)c2ccc(Cl)cc2)c2c1C(c1ccc([N+](=O)[O-])cc1)SC(=N)N2 (stereo not given) in this test?
-1
